Attribute: self-cleavage kobs at 2500 uM GlcN6P
B1: glmS ribozyme (parent)
chain: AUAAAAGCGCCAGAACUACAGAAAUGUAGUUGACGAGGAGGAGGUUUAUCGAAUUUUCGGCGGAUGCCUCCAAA

variants of: B1; assay: self-cleavage kobs at 2500 uM GlcN6P; higher = faster cleavage; RNA array; conditions: with glucosamine-6-phosphate
Variants at the floor of the assay were thinned out.

>  <alteration>
G13U U55G U56C

>  <self-cleavage kobs at 2500 uM GlcN6P>
0.000112 s⁻¹

$$$$

## Input Can you look up the measured self-cleavage kobs at 2500 uM GlcN6P of G40C A52G for me?
## Output 0.000102 s⁻¹

## Input Same lookup for A12C C50U , please.
## Output 7.01e-05 s⁻¹

## Input Same lookup for A52C G62U C71A , please.
## Output < 1e-05 s⁻¹

## Input Same lookup for C11G U45G C71U , please.
## Output < 1e-05 s⁻¹

## Input Same lookup for A15U C50G A53U U55A , please.
## Output 4.02e-05 s⁻¹

## Input Same lookup for A6G U49G , please.
## Output < 1e-05 s⁻¹

## Input Same lookup for G35U G41U G43A , please.
## Output < 1e-05 s⁻¹

## Input Same lookup for U30A U47G , please.
## Output 0.000481 s⁻¹

## Input Same lookup for A15G C34G A42U C67G , please.
## Output < 1e-05 s⁻¹

## Input Same lookup for A36C A52G C61G , please.
## Output < 1e-05 s⁻¹

## Input Same lookup for A14C U55G C67U , please.
## Output 0.000399 s⁻¹

## Input Same lookup for A15U G32C A36C G40C , please.
## Output < 1e-05 s⁻¹

## Input Same lookup for U31C C67G , please.
## Output 3.49e-05 s⁻¹

## Input Same lookup for C8G C11U G32U G59U , please.
## Output < 1e-05 s⁻¹

## Input Same lookup for C10A U56C , please.
## Output < 1e-05 s⁻¹

## Input Same lookup for C8G G9U A14U A15U A64G C70U , please.
## Output < 1e-05 s⁻¹

## Input Same lookup for A14U C50G , please.
## Output 9.1e-05 s⁻¹

## Input Same lookup for U46G A48U G59U U69C , please.
## Output < 1e-05 s⁻¹

## Input Same lookup for G32C G44C A48C C67G , please.
## Output < 1e-05 s⁻¹

## Input Same lookup for G9C U45C , please.
## Output < 1e-05 s⁻¹

## Input Same lookup for G7U A42G , please.
## Output < 1e-05 s⁻¹
